Assay: qHTS of pediatric cancer cell lines to identify multiple opportunities for drug repurposing: Primary screen for BT-37 cells (AID 1347094)
Conditions: BT-37 viability, CellTiter-Glo luminescence, 48 h; series mostly up to 57.3 µM
Inconclusive results are not listed. Active and inactive are the calls of the source. The call rests on the fitted dose curve; in most records, active means well fitted cell-killing curve with a large enough effect; inconclusive means small, poorly fitted or top-dose-only effect; inactive means flat fitted curve, though single readings scatter.
Select the matching outcome among True = active, False = inactive

Past entries and their recorded results:
CC(=O)SCC(CC(=O)c1ccc(C)cc1)C(=O)O (configuration not stated) : False
O=C(O)Cc1ccc2c(c1)C(=O)c1ccccc1CO2 : False
Nc1ccc(O)c(C(=O)O)c1 : False
CN(C)c1ccc(C(=C2C=CC(=[N+](C)C)C=C2)c2ccccc2)cc1 : True
O=C1CN(/N=C/c2ccc([N+](=O)[O-])o2)C(=O)N1 : False

IN: Given O=C(CS)Nc1ccccc1 , state the outcome it received in this test.
OUT: False

IN: Given CO[C@@]1(NC(=O)Cc2cccs2)C(=O)N2C(C(=O)O)=C(COC(N)=O)CS[C@@H]21 , state the outcome it received in this test.
OUT: False

* * *

Assay: Cellular Toxicity (caspase-3) SK-N-SH (AID 661);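 further: cells exposed to compound for 16 hours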
Settings: SK-N-SH caspase-3 activation, qHTS; series mostly up to 91.7 µM
Activity calls are given as the source filed them. Calls follow the shape of the dose curve; as a rule, active = well fitted activation curve with a large enough effect; inconclusive = small, poorly fitted or top-dose-only effect; inactive = flat fitted curve, though single readings scatter.
Select the matching outcome among active, inactive

Past entries and their recorded results:
O=C(O)c1cc(O)c(O)c(O)c1 : inactive
C#C[C@]1(O)CC[C@H]2[C@@H]3CCc4cc(O)ccc4[C@H]3CC[C@@]21C : inactive
O=C(O)/C=C\C(=O)O : inactive

IN: Given N=C1N=C(N)c2cc3ccccc3cc21 , state the outcome it received in this test.
OUT: active

IN: Given O=C1CN(/N=C/c2ccc([N+](=O)[O-])o2)C(=O)N1 , state the outcome it received in this test.
OUT: inactive

IN: Given c1ccc2sc(SSc3nc4ccccc4s3)nc2c1 , state the outcome it received in this test.
OUT: inactive

IN: Given CN1CCC[C@H]1c1cccnc1 , state the outcome it received in this test.
OUT: inactive

IN: Given Oc1ccccc1O , state the outcome it received in this test.
OUT: inactive

IN: Given CC1(C)S[C@@H]2[C@H](NC(=O)[C@H](N)c3ccccc3)C(=O)N2[C@H]1C(=O)O , state the outcome it received in this test.
OUT: inactive

IN: Given COc1cc(CNC(=O)CCCC/C=C/C(C)C)ccc1O , state the outcome it received in this test.
OUT: inactive

IN: Given CCCCCCCCCCCCCCCCCC(=O)O , state the outcome it received in this test.
OUT: inactive

IN: Given CCCOC(=O)c1ccc(O)cc1 , state the outcome it received in this test.
OUT: inactive

IN: Given CN(C)c1ccc(C(=C2C=CC(=[N+](C)C)C=C2)c2ccccc2)cc1 , state the outcome it received in this test.
OUT: active

IN: Given CC(C)NCC(O)COc1cccc2ccccc12 (stereo not given) , state the outcome it received in this test.
OUT: inactive

IN: Given NCCO , state the outcome it received in this test.
OUT: inactive

* * *

System: TAB113
Test: qHTS profiling for inhibitors of Plasmodium falciparum proliferation (AID 504749); further: nearly all actives have a fitted effect of over 60% in size
Conditions: P. falciparum in erythrocytes, SYBR Green DNA, 72 h; series mostly up to 28.7 µM
Results filed as inconclusive are left out. Calls of active or inactive are those of the source. Calls follow the shape of the dose curve; as a rule, active = well fitted inhibition curve with a large enough effect; inconclusive = small, poorly fitted or top-dose-only effect; inactive = flat fitted curve, though single readings scatter.
Select the matching outcome among active, inactive

c1ccc2sc(SSc3nc4ccccc4s3)nc2c1 : inactive
CC1(C)S[C@@H]2[C@H](NC(=O)[C@H](NC(=O)N3CCN(S(C)(=O)=O)C3=O)c3ccccc3)C(=O)N2[C@H]1C(=O)O : inactive
O=C(CCN1CCN(CCO)CC1)N1c2ccccc2Sc2ccc(C(F)(F)F)cc21 : inactive

IN: Given Cc1[nH]cnc1CN1CCc2c(c3ccccc3n2C)C1=O , state the outcome it received in this test.
OUT: inactive

IN: Given C=C(Nc1ccc(OCC)cc1)Nc1ccc(OCC)cc1 , state the outcome it received in this test.
OUT: inactive

IN: Given COc1cc(/C=C/C(=O)N2CCN(CC(=O)N3CCCC3)CC2)cc(OC)c1OC , state the outcome it received in this test.
OUT: inactive

IN: Given Nc1ccc(C(=O)O)c(O)c1 , state the outcome it received in this test.
OUT: inactive

IN: Given CC1(C)[C@@H](O)CC[C@]2(C)[C@H]3C(=O)C=C4[C@@H]5C[C@@](C)(C(=O)O)CC[C@]5(C)CC[C@@]4(C)[C@]3(C)CC[C@@H]12 , state the outcome it received in this test.
OUT: inactive
